# credit: patent US20190358196A1

target: PI4Ka (Homo sapiens)
Sequence (P42356 whole entry): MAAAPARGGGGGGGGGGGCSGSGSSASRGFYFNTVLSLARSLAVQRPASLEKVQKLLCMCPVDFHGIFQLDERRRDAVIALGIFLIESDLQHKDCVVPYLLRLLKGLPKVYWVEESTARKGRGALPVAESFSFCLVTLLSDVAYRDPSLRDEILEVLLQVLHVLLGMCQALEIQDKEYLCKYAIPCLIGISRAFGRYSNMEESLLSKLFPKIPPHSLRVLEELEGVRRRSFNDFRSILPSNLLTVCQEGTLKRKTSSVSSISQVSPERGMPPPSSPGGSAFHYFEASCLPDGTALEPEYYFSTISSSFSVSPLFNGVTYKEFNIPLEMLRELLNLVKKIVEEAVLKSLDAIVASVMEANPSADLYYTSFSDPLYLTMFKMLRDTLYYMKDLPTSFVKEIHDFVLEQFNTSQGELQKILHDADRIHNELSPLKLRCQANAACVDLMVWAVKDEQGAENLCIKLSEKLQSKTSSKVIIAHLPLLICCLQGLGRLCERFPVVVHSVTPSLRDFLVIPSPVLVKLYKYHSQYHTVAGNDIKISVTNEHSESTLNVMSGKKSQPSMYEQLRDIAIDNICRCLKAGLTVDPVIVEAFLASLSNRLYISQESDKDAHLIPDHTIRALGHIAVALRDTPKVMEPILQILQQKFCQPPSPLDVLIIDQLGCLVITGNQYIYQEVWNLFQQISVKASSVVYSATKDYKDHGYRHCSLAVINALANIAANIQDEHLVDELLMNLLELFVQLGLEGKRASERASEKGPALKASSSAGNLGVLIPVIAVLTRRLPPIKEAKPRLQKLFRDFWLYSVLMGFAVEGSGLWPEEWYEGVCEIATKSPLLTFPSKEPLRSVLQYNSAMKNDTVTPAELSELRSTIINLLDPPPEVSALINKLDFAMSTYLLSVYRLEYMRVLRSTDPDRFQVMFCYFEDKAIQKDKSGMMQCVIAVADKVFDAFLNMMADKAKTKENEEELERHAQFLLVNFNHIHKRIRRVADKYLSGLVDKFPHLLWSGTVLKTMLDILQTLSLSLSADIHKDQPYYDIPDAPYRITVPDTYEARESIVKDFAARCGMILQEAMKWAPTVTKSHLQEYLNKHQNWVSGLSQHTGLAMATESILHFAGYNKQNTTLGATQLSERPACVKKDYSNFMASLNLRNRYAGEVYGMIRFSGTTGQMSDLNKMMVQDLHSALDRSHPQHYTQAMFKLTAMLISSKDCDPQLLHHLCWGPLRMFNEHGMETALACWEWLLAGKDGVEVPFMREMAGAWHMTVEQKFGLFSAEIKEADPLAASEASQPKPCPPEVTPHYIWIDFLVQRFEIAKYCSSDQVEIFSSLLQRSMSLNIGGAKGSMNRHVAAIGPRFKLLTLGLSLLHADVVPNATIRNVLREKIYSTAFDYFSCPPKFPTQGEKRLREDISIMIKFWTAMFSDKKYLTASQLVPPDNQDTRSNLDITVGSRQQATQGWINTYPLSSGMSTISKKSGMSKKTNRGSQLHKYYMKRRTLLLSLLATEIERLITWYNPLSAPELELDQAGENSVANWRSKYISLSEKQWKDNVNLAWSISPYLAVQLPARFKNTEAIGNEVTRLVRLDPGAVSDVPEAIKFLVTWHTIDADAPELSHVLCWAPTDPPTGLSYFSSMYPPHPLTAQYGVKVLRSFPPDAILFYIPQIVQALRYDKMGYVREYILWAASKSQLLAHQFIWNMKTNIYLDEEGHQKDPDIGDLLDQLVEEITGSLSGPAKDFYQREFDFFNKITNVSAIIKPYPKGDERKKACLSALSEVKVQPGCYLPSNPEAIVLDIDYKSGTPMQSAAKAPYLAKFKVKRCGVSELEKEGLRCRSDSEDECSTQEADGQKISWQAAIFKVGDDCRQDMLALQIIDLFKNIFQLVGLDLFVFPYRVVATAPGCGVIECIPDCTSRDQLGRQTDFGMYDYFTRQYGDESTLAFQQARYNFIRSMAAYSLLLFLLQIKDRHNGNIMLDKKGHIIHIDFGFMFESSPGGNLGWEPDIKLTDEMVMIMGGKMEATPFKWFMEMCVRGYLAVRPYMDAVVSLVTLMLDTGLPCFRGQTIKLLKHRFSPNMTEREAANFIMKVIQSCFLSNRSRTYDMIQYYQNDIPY
Experimental endpoint: pIC50
// returns pIC50 (minus log10 of molar concentration), number only

# pIC50 lookup, item Oc1cccc(-c2nc(N3CCOCC3)c3oc4ncccc4c3n2)c1
6.49
